study_target: T1, human ROR1 on the surface of tumor cells (human, UniProt Q01973 30-937)
T1 construct: whole, on cells; also called ROR1 on the cell surface; tumor cell ROR1
T1 sequence (Q01973 30-937): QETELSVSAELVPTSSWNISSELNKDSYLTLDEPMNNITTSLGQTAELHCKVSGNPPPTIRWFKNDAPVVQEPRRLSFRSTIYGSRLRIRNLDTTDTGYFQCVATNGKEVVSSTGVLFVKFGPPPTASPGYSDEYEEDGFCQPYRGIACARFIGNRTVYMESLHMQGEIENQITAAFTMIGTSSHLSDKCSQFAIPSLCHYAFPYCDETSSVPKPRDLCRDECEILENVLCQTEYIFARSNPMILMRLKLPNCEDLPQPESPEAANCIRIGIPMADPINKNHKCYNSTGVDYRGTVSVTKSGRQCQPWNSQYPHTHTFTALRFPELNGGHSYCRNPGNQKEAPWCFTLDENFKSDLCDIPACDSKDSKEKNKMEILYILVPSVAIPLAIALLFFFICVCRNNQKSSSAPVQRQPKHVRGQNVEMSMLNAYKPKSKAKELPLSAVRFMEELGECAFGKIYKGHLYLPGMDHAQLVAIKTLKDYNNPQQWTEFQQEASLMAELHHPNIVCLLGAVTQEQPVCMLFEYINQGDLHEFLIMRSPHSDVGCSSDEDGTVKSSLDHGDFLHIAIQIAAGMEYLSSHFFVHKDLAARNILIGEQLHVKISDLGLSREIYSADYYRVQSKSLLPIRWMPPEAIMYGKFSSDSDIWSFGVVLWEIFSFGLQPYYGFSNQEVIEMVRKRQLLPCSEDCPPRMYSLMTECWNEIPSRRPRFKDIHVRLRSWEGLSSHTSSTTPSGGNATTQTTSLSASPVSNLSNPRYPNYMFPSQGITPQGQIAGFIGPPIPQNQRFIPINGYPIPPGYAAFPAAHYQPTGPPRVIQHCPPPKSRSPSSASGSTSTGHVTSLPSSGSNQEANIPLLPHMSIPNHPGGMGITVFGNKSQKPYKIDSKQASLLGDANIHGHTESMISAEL
protocol_details: FACS, MDA-MB-231 cells
Exercise: state measured pEC50 for each of the binders provided.
Quick note: pEC50 means taking -log10 of the concentration in moles per liter.

Given item mAb006 (antibody, IgG2b, V domains shown, Mouse monoclonal antibody, IgG2b/k) VH: EVQLQQSGPELVKPGASLKMSCKASGYTFPDYNIHWVKQSHGKSLEWIGYINPNNGGTTYNQKFKGKATLTVSKSSSTAYMELRSLTSEDSAVYSCARRGYGSSYAMDYWAQGTSVTVSS VL: DVLMTQSPLSLPVSLGDQASISCRSSHIIVHTNGNTYLEWYLQKPGQSPKLLIYKVSNRFSGVPDRFSGSGSGTDFTLKISRVEAEDLGVYYCFQGSRVPYTFGGGTKLEIK , the value recorded as its pEC50 is 9.72

Given item mAb008c (antibody, V domains shown, Human-mouse chimeric) VH: EVQLQQSGPELVKPGASVKMSCKASEYTFTDYNMHWVKQSHGKSLEWIGYINPNNGGTTYNQKFKGKATLTVNKSSSTAYMELRSLTSDDSAVYYCARRGYGSGYAMDYWGQGASVTVSS VL: DVLLTQTPLSLPVSLGDRASISCTSSQSIVHTNGNTYLEWYLQNPGQSPKLLIYKVSNRFSGVPDRFSGSGSGTDFTLKISRVEAEDLGVYYCFQGSLFPYTFGGGTKLEIK , the value recorded as its pEC50 is 9.11

Given item mAb008 (antibody, IgG2b, V domains shown, Mouse monoclonal antibody, IgG2b/k) VH: EVQLQQSGPELVKPGASVKMSCKASEYTFTDYNMHWVKQSHGKSLEWIGYINPNNGGTTYNQKFKGKATLTVNKSSSTAYMELRSLTSDDSAVYYCARRGYGSGYAMDYWGQGASVTVSS VL: DVLLTQTPLSLPVSLGDRASISCTSSQSIVHTNGNTYLEWYLQNPGQSPKLLIYKVSNRFSGVPDRFSGSGSGTDFTLKISRVEAEDLGVYYCFQGSLFPYTFGGGTKLEIK , the value recorded as its pEC50 is 9.96

Given item mAb004 (antibody, IgG2b, V domains shown, Mouse monoclonal antibody, IgG2b/k) VH: EVQLVESGGGLVQPKGSLKLSCAASGFTFNTYAMHWVRQAPGKGLEWVARIRSKSSNFATYYADSVRDRFTISRDDSQSMLYLQMNNLKTEDTAMYYCVRGYGPSYFSLDYWGQGTSVTVSS VL: DVVMTQTPLSLPVSLGDQASISCRSSQSLVHSNGNTYLHWYLQKPGQSPKLLIYKVSNRFSGVPDRFSGSGSGTDFTLKINRVEAEDLGVYFCSQSTHAIYTFGGGTKLEIK , the value recorded as its pEC50 is 9.82

Given item mAb005 (antibody, IgG2b, V domains shown, Mouse monoclonal antibody, IgG2b/k) VH: EVQLVESGGGLVKPGGSLKLSCAASGFTFNSYAMSWVRQTPEKRLEWVATISDGGSYTYYPDNEKGRFTISRDNAKNNLYLQMSHLKSEDTAIYYCVRGGYYYNLYAMDYWGQGTSVTVSS VL: DIVLTQSPASLAVSLGQRAIISCKASQSVSFPGTSLMHWYQQKPGQQPKLLIYRASNLEAGVPTRFSGSGSRTDFTLNIHPVEEDDTATYYCQQSREYPWTFGGGTQLEIK , the value recorded as its pEC50 is 9.80

Given item mAb009 (antibody, IgG2b, V domains shown, Mouse monoclonal antibody, IgG2b/k) VH: EVQLQQSGPELVKPGASLKLSCKASGYTFPDYNIHWVKQSHGKSLEWIGYINPNNGNTNYNQKFEGKATLTVSKSSSTAYMELRSLTSDDSAVYSCARRGYGSSYAMDFWGQGTSVTVSS VL: DVLMTQTPLSLPVSLGNQASISCRSSHIIVHTNGNTYLEWYLQKPGQSPKLLIYKVSNRFSGVPDRFSGSGSGTDFTLKISRVEAEDLGVYYCFQGSRVPYTFGGGTKLEIK , the value recorded as its pEC50 is 9.80

Given item mAb001c_v1 (antibody, IgG1, V domains shown, Chimeric mutant in hIgG1,k vector; the entries already hold the site-directed changes; also called human-mouse chimeric antibody mutant of mAb001c; site-directed mutant of mAb001c) VH: EVRLQQSGPVLVKPGASVKMSCKASGYTFTDYNLHWVKQSHRQSLEWIGYINPNHDATSYNQKFQGKATLTVDRSSSTAYMEFRSLTSEDSAVYYCARRVRTGTGLDDWGQGTTLTVSS VL: DVLMTQSPLSLPVSLGDQASISCRSSHNIVHTNANTYLEWYLQKPGQSPKLLIYKVSNRFSGVPDRFSGSGSGTYFTLTISRVEAEDLGVYYCFQGSRFPYTFGGGTKLEIK , the value recorded as its pEC50 is 10.14

Given item mAb009c (antibody, V domains shown, Human-mouse chimeric) VH: EVQLQQSGPELVKPGASLKLSCKASGYTFPDYNIHWVKQSHGKSLEWIGYINPNNGNTNYNQKFEGKATLTVSKSSSTAYMELRSLTSDDSAVYSCARRGYGSSYAMDFWGQGTSVTVSS VL: DVLMTQTPLSLPVSLGNQASISCRSSHIIVHTNGNTYLEWYLQKPGQSPKLLIYKVSNRFSGVPDRFSGSGSGTDFTLKISRVEAEDLGVYYCFQGSRVPYTFGGGTKLEIK , the value recorded as its pEC50 is 9.48

Given item mAb001 (antibody, IgG2b, V domains shown, Mouse monoclonal antibody, IgG2b/k) VH: EVRLQQSGPVLVKPGASVKMSCKASGYTFTDYNLHWVKQSHRQSLEWIGYINPNHDGTSYNQKFQGKATLTVDRSSSTAYMEFRSLTSEDSAVYYCARRVRTGTGLDDWGQGTTLTVSS VL: DVLMTQSPLSLPVSLGDQASISCRSSHNIVHTNGNTYLEWYLQKPGQSPKLLIYKVSNRFSGVPDRFSGSGSGTYFTLTISRVEAEDLGVYYCFQGSRFPYTFGGGTKLEIK , the value recorded as its pEC50 is 10.14

Given item mAb003 (antibody, IgG2c, V domains shown, Mouse monoclonal antibody, IgG2c/k) VH: EVQLVESGGGLVKPGGSLKLSCAASGFTFSSYAMSWVRQTPEKRLEWVATISDGGSYTYYPDSVKGRFTISRDNAKNNLYLQMSHLKSEDTDMYYCVRGGYYYNLYAMDYWGQGTSVTVSS VL: DIVLTQSPASLAVSLGQRAIISCKASQSVSFAGTSLMHWYQQKPGQQPKLLIYRASNLEAGVPTRFSGSGSRADFTLNIHPVEEDDAATYYCQQSGEYPWTFGGGTKLEIK , the value recorded as its pEC50 is 9.35

Given item mAb003c (antibody, V domains shown, Human-mouse chimeric) VH: EVQLVESGGGLVKPGGSLKLSCAASGFTFSSYAMSWVRQTPEKRLEWVATISDGGSYTYYPDSVKGRFTISRDNAKNNLYLQMSHLKSEDTDMYYCVRGGYYYNLYAMDYWGQGTSVTVSS VL: DIVLTQSPASLAVSLGQRAIISCKASQSVSFAGTSLMHWYQQKPGQQPKLLIYRASNLEAGVPTRFSGSGSRADFTLNIHPVEEDDAATYYCQQSGEYPWTFGGGTKLEIK , the value recorded as its pEC50 is 8.96
